# System: MOLT-4
# MEASUREMENT_NOTES: CellTiterGlo cell viability assay, initial screening
# Type: cell-based
# RUN_CONDITIONS: MOLT-4; 72 hr; Table II
# Protocol: In vitro viability assays were performed to assess the effects of compounds on cell viability in 7 selected cell lines over 72 hr using the CellTiterGlo (CTG, Promega-G7573) assay. The tests were performed in duplicates with treatment of compounds at 9 points, 3.16 folds titration in 96 well plates over ˜72 hr. […] All compound solubilities were checked and recorded again, then the plates were transferred to CO2 tissue culture incubator immediately and incubated for 3 days. […]
PARAMETER_MEASURED: M.I. %: maximum percentage inhibition of cell viability (%)
Note: unit % is implicit; provide only the numeric part.

Some solved entries appear below for comparison.
[
  {
    "COMPOUND": "Nc1ncnc2c1ncn2[C@@H]1O[C@H](COP(=O)(NCC(=O)OCc2ccccc2)Oc2ccccc2)C[C@H]1O (stereo partly shown)",
    "ASSAY_TARGET": "MOLT-4",
    "OBSERVED_MEASUREMENT": 93
  },
  {
    "COMPOUND": "C[C@H](NP(=O)(Oc1cccc2ccccc12)O[C@@H]1C[C@@H](CO)O[C@H]1n1cnc2c(N)ncnc21)C(=O)OCc1ccccc1 (stereo partly shown)",
    "ASSAY_TARGET": "MOLT-4",
    "OBSERVED_MEASUREMENT": 100
  },
  {
    "COMPOUND": "C[C@H](NP(=O)(Oc1ccccc1)O[C@@H]1C[C@@H](CO)O[C@H]1n1cnc2c(N)ncnc21)C(=O)OCc1ccccc1 (stereo partly shown)",
    "ASSAY_TARGET": "MOLT-4",
    "OBSERVED_MEASUREMENT": 75
  }
]

Can you look up the measured M.I. %: maximum percentage inhibition of cell viability of C[C@H](NP(=O)(OC[C@@H]1C[C@@H](OP(=O)(N[C@@H](C)C(=O)OCc2ccccc2)Oc2ccccc2)[C@H](n2cnc3c(N)ncnc32)O1)Oc1ccccc1)C(=O)OCc1ccccc1 (stereo partly shown) for me?
100
